This section presents molecules with their documented Antitumor therapeutic index P388 values.
# Test system: Lymphocytic leukemia P388
# methodSummary: animal or person
# Format: in vivo, BDF1 mice
# measurementParameters: single dose LD50/ED125; copper-chelated form unless otherwise stated
The reply should be a number, written without any unit.

- molecule: "Cc1c(N)nc(C(CC(N)=O)NCC(N)C(N)=O)nc1C(=O)NC(C(=O)NC(C)C(O)CC(=O)NC(C(=O)NC(OC1OC(C)C(N)C(O)C1O)C(O)c1nc(-c2nc(C(=O)NCCCNCCO)cs2)cs1)C(C)O)C(OC1OC(CO)C(O)C(O)C1OC1OC(CO)C(O)C(OC(N)=O)C1O)c1c[nH]cn1 (stereo not drawn) [Tallysomycin S6b]"
  Antitumor therapeutic index P388: 14

Pending molecule:
IN: Requested field: Antitumor therapeutic index P388. Item: CNCCCNC(=O)c1csc(-c2csc(C(O)C(NC(=O)C(NC(=O)CC(O)C(C)NC(=O)C(NC(=O)c3nc(C(CC(N)=O)NCC(N)C(N)=O)nc(N)c3C)C(OC3OC(CO)C(O)C(O)C3OC3OC(CO)C(O)C(OC(N)=O)C3O)c3c[nH]cn3)C(C)O)OC3OC(C)C(N)C(O)C3O)n2)n1 (stereo not drawn) [Tallysomycin S11b]
OUT: 75

From: patent US4314028A
